Recorded values, source patent US20190359723A1.

biological target: T1, IL-13RA2 huFc (human); test: SPR (Biacore T200), nickel-purified scFv
T1 construct: Expressed in 293F cells, purified on protein A; also called human IL13RA2; recombinant IL-13RA2
T1 sequence (chain, as listed by the source limits assumed): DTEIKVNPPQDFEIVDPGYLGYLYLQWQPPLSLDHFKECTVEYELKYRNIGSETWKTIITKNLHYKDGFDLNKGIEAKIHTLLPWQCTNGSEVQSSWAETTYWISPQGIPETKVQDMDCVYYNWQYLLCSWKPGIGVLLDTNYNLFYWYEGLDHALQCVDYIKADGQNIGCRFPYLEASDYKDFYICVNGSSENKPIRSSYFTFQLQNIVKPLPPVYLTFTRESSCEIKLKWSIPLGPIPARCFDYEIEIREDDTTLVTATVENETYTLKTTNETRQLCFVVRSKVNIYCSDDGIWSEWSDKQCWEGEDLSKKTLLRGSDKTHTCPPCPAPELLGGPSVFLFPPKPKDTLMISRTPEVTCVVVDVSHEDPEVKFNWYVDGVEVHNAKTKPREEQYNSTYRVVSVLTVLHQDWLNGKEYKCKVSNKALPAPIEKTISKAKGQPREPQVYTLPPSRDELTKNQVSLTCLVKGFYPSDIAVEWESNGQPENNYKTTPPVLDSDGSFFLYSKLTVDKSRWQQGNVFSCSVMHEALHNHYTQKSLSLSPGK
quantity_kind: kon (M⁻¹ s⁻¹)
Give the value, in units of M⁻¹ s⁻¹, as a plain number.

Sample records with kon:
1H7 (scFv) (scFv, also called clone 1H7) scFv: EVQLLESGGGLVQPGGSLRLSCAASGFTFRRYAMSWVRQAPGKGLEWVSGISGSGGGTYYADSVKGRFTISRDNSKNTLYLQMNSLRAEDTAVYYCAKVRYGWGAGAFDYWGQGTLVTVSSGGGGSGGGGSGGGGSDIQMTQSPSTLSASVGDRVTITCRASQSISSWLAWYQQKPGKAPKLLIYDASSLESGVPSRFSGSGSGTEFTLTISSLQPDDFATYYCQQYDTYPPITFGQGTKVEIK    63200
2D4 (scFv) (scFv, also called clone 2D4) scFv: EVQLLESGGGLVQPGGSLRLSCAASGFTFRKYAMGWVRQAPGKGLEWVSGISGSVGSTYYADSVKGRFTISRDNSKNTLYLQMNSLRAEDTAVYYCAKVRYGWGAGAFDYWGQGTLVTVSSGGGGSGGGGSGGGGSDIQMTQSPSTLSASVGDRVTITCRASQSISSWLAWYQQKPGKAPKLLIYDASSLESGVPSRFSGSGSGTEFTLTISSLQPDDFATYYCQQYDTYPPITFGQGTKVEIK    83500
2C7 (scFv) (scFv, also called clone 2C7) scFv: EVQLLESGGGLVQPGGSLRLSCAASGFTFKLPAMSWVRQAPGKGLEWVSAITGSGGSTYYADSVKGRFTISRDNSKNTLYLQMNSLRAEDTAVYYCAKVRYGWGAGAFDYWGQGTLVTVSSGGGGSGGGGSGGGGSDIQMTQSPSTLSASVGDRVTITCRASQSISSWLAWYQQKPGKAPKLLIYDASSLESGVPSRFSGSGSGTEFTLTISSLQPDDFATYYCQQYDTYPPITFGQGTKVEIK    75700
2A5 (scFv) (scFv, also called clone 2A5) scFv: EVQLLESGGGLVQPGGSLRLSCAASGFTFSRYAMNWVRQAPGKGLEWVSAISASGGGTYYADSVKGRFTISRDNSKNTLYLQMNSLRAEDTAVYYCAKVRYGWGAGAFDYWGQGTLVTVSSGGGGSGGGGSGGGGSDIQMTQSPSTLSASVGDRVTITCRASQSISSWLAWYQQKPGKAPKLLIYDASSLESGVPSRFSGSGSGTEFTLTISSLQPDDFATYYCQQYDTYPPITFGQGTKVEIK    42400
5D7 (scFv) (scFv, also called clone 5D7) scFv: EVQLLESGGGLVQPGGSLRLSCAASGFTFSNYAMSWVRQAPGKGLEWVSGIRSSGGRTFYADSVKGRFTISRDNSKNTLYLQMNSLRAEDTAVYYCARVAFSGSFDYWGQGTLVTVSSGGGGSGGGGSGGGGSDIQMTQSPSTLSASVGDRVTITCRASQSISSWLAWYQQKPGKAPKLLIYDASSLESGVPSRFSGSGSGTEFTLTISSLQPDDFATYYCQQRNRYPPTFGQGTKVEIK    82200
1D8 (scFv) (scFv, also called clone 1D8) scFv: EVQLLESGGGLVQPGGSLRLSCAASGFTFSRYAMNWVRQAPGKGLEWVSAINASGGSTYYADSVKGRFTISRDNSKNTLYLQMNSLRAEDTAVYYCAKVRYGWGAGAFDYWGQGTLVTVSSGGGGSGGGGSGGGGSDIQMTQSPSTLSASVGDRVTITCRASQSISSWLAWYQQKPGKAPKLLIYDASSLESGVPSRFSGSGSGTEFTLTISSLQPDDFATYYCQQYDTYPPITFGQGTKVEIK    66000
5G3 (scFv) (scFv, also called clone 5G3) scFv: EVQLLESGGGLVQPGGSLRLSCAASGFTFSSYVLSWVRQAPGKGLEWVSAIRGSAGNTYYADSVKGRFTISRDNSKNTLYLQMNSLRAEDTAVYYCARVAFSGSFDYWGQGTLVTVSSGGGGSGGGGSGGGGSDIQMTQSPSTLSASVGDRVTITCRASQSISSWLAWYQQKPGKAPKLLIYDASSLESGVPSRFSGSGSGTEFTLTISSLQPDDFATYYCQQRNRYPPTFGQGTKVEIK    70300
1B11 (scFv) (scFv, also called clone 1B11) scFv: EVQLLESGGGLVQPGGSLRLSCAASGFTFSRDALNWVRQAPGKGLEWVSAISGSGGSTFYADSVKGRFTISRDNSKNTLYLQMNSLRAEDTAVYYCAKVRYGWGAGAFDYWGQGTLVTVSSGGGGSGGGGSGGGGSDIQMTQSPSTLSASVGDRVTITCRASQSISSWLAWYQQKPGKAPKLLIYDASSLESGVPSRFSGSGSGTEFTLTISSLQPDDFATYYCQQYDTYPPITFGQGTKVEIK    46000

Let us examine a further case.
Q: What does the record list as kon for 1D11 (scFv) (scFv, also called clone 1D11) scFv: EVQLLESGGGLVQPGGSLRLSCAASGFTFGTIPMSWVRQAPGKGLEWVSSISGSAGSTYYADSVKGRFTISRDNSKNTLYLQMNSLRAEDTAVYYCAKVRYGWGAGAFDYWGQGTLVTVSSGGGGSGGGGSGGGGSDIQMTQSPSTLSASVGDRVTITCRASQSISSWLAWYQQKPGKAPKLLIYDASSLESGVPSRFSGSGSGTEFTLTISSLQPDDFATYYCQQYDTYPPITFGQGTKVEIK ?
A: 39000
